test: ASC/caspase-1 reporter retest in S. cerevisiae at one dose, specificity check for NALP1 project (AID 488857); conditions: S. cerevisiae ASC/Caspase-1, beta-galactosidase luminescence, 24 h; at 10 µM; active compounds read high
About 560 (40%) of roughly 1,400 compounds were called active. The set was probably picked from earlier hits. The list shows a part of the results.
Rule: yes for inhibition not less than 50%, no for anything less.

[
  {
    "compound": "CCCc1[nH]nc2c1C(c1ccoc1)C(C#N)=C(N)O2 (centres undefined)",
    "group.label": "no"
  },
  {
    "compound": "COc1ccc(C(=O)/C=C/Nc2ccc([N+](=O)[O-])cc2C)c(OC)c1",
    "group.label": "no"
  },
  {
    "compound": "CC(NC(=O)/C(C#N)=C/c1ccc([N+](=O)[O-])o1)c1ccccc1 (centres undefined)",
    "group.label": "no"
  },
  {
    "compound": "O=C(CSc1ncn[nH]1)NC12CC3CC(CC(C3)C1)C2",
    "group.label": "no"
  },
  {
    "compound": "CC(C)NC(=O)CSc1nc(-c2ccccc2)cs1",
    "group.label": "yes"
  }
]

Identify whether the reported inhibition of the following compound is 50% or greater: "Cn1c(N)c(C(=O)COC(=O)C2(c3ccc(Cl)cc3)CCCC2)c(=O)n(C)c1=O"
no

Identify whether the reported inhibition of the following compound is 50% or greater: "COc1ccccc1NS(=O)(=O)c1ccc(NC(=O)Cc2cccs2)cc1"
no

Identify whether the reported inhibition of the following compound is 50% or greater: CC1CN(C(=O)Nc2ccc3c(c2)OCO3)CC(C)O1 (centres undefined)
no

Identify whether the reported inhibition of the following compound is 50% or greater: "Cc1nc2c(ccc3c2ccc2nc(C)sc23)s1"
no

---

assay: ASC/caspase-1 reporter retest in S. cerevisiae at one dose, specificity check for NALP1 project (AID 488857); conditions: S. cerevisiae ASC/Caspase-1, beta-galactosidase luminescence, 24 h; at 10 µM
Screen size: about 1,400 compounds; about 560 (40%) were called active.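 The calls were made as follows: active = mean inhibition over duplicate tests at 10 µM above 50%; inactive = the rest.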 The set was probably picked from earlier hits. Some of the results follow.
A correct response names exactly one class from active, inactive

Previously resolved entries follow.
[
  {
    "molecule": "Cc1oc(-c2ccccc2Cl)nc1CSc1nc2c(c(=O)[nH]1)CCC2",
    "group.label": "inactive"
  },
  {
    "molecule": "COC1=C(Nc2ccc(O)cc2)C(=O)c2ccccc2C1=O",
    "group.label": "inactive"
  },
  {
    "molecule": "Clc1ccc(Cn2c(/C=C/c3ccco3)nc3ccccc32)cc1",
    "group.label": "inactive"
  },
  {
    "molecule": "CCc1ccc(OCCNC(=O)OCc2ccccc2)cc1",
    "group.label": "active"
  },
  {
    "molecule": "CCCN(CCC)C(=O)Cn1c(=O)n(CCCCC(=O)NCc2ccco2)c(=O)c2ccccc21",
    "group.label": "inactive"
  }
]

Now turn to the next molecule.
For this molecule, state the assay outcome: "CCCCCCCCCCCCCCCC[n+]1cccc(C(=O)N(CC)CC)c1"
active

---

Property: inhibition; scope: individual compounds
assay: ASC/caspase-1 reporter retest in S. cerevisiae at one dose, specificity check for NALP1 project (AID 488857); conditions: S. cerevisiae ASC/Caspase-1, beta-galactosidase luminescence, 24 h; at 10 µM; active compounds read high
Out of some 1,400 compounds screened, about 560 (40%) were called active. The set was probably picked from earlier hits. The list shows a part of the results.
Give the number; % is assumed, so skip it.

Worked set:
[
  {
    "compound": "CSc1nnc(-c2cc3c(s2)-c2ccccc2CC3)o1",
    "inhibition (%)": 46.8
  },
  {
    "compound": "COc1ccc(CCNCc2ccc(OCc3ccccc3)cc2)cc1",
    "inhibition (%)": 80.8
  }
]

// below: inhibition requested for another compound
Can you look up the measured inhibition of "Cc1ccccc1Nc1cc(C)c2c(O)cccc2n1" for me?
77.8

---

test: ASC/caspase-1 reporter retest in S. cerevisiae at one dose, specificity check for NALP1 project (AID 488857); details: S. cerevisiae ASC/Caspase-1, beta-galactosidase luminescence, 24 h; at 10 µM
The campaign covered roughly 1,400 compounds. About 560 (40%) were called active.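 The calls were made as follows: active = mean inhibition over duplicate tests at 10 µM above 50%; inactive = the rest.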 So high a share suggests a set chosen from earlier hits. This is one part of the list.
A correct response names exactly one class from class 1 for active, class 0 for inactive

Previously resolved entries follow.
[
  {
    "item.smiles": "COc1ccccc1NC1=C(N2CCCCC2)C(=O)c2ccccc2C1=O",
    "group.label": "class 1"
  },
  {
    "item.smiles": "Cc1ccc(CC(=O)Nc2ccccc2-c2ccccc2)cc1C",
    "group.label": "class 0"
  }
]

Now turn to the next compound.
For this compound, state the assay outcome: "Cc1ccc2nc(N(CCCN(C)C)C(=O)c3sc4ccccc4c3Cl)sc2c1"
class 0

---

Property: inhibition; scope: individual molecules
test: ASC/caspase-1 reporter retest in S. cerevisiae at one dose, specificity check for NALP1 project (AID 488857); conditions: S. cerevisiae ASC/Caspase-1, beta-galactosidase luminescence, 24 h; at 10 µM; active compounds read high
Among all 1,400 compounds or so, about 560 (40%) were called active. So high a share suggests a set chosen from earlier hits. The list shows a part of the results.
Give the number; % is assumed, so skip it.

Worked set:
[
  {
    "molecule": "Clc1ccc(CO/N=C2\\CCCc3nonc32)c(Cl)c1",
    "test.result": 52.5
  },
  {
    "molecule": "CSCCNC(C)=O",
    "test.result": 17
  },
  {
    "molecule": "O=[N+]([O-])c1cc(S(=O)(=O)N2CCCCCC2)ccc1F",
    "test.result": 86.2
  },
  {
    "molecule": "O=C1Cc2ccccc2C(=O)N1OCc1ccc(Cl)cc1Cl",
    "test.result": 29.5
  },
  {
    "molecule": "O=C(O)[C@@H](c1ccccc1)N1Cc2ccccc2C1=O",
    "test.result": 22.6
  },
  {
    "molecule": "NNC(=S)NCc1cccnc1",
    "test.result": 37.2
  },
  {
    "molecule": "CN(C)C(C)(C)C#CCC(c1ccccc1)c1ccccc1",
    "test.result": 55
  },
  {
    "molecule": "CCCCC(CC(O)COCCC)c1n[nH]c(=S)n1-c1ccccc1 (centres undefined)",
    "test.result": 42
  }
]

Can you look up the measured inhibition of "N=c1ccn(Cc2ccc(Cl)cc2Cl)cc1" for me?
38

Can you look up the measured inhibition of O=S(=O)(CC(CN1CCCCC1)N1CCCCC1)c1ccc2ccccc2c1 (centres undefined) for me?
59.8

Can you look up the measured inhibition of "S=C1SCN(Cc2cccnc2)CN1Cc1cccnc1" for me?
89.2

Can you look up the measured inhibition of "O=C(Oc1ccc(/C=N/NC(=O)c2ccccc2O)cc1)c1ccccc1" for me?
34.4

Can you look up the measured inhibition of "O=C(C[n+]1ccc(C(=O)N/N=C/c2ccc(OCc3ccccc3)cc2)cc1)c1ccccc1" for me?
54.6

Can you look up the measured inhibition of "CCCCNC(=O)COC(=O)c1ccc(Cl)c(S(N)(=O)=O)c1" for me?
37.4

---

experiment: ASC/caspase-1 reporter retest in S. cerevisiae at one dose, specificity check for NALP1 project (AID 488857); details: S. cerevisiae ASC/Caspase-1, beta-galactosidase luminescence, 24 h; at 10 µM; active compounds read high
The campaign covered roughly 1,400 compounds. About 560 (40%) were called active. The set was probably picked from earlier hits. The list shows a part of the results.
Rule: yes for inhibition not less than 40%, no for anything less.

[
  {
    "compound": "O=C(/C=C/Sc1ccccc1)c1ccc(Cl)cc1",
    "group.label": "yes"
  },
  {
    "compound": "Cc1cc(=O)oc2cc(OCC(=O)N3CCN(C(=O)c4ccco4)CC3)ccc12",
    "group.label": "no"
  },
  {
    "compound": "O=C(CCN1CCc2ccccc2C(c2ccccc2)C1)c1ccc2c(c1)OCCO2 (stereo not drawn)",
    "group.label": "no"
  }
]

Identify whether the reported inhibition of the following compound is 40% or greater: "CCC(=O)N(Cc1cc2c(C)ccc(C)c2[nH]c1=O)C1CCCCC1"
no

Identify whether the reported inhibition of the following compound is 40% or greater: "Cc1cccc(NCc2nc3ccccc3n2C)c1"
yes

Identify whether the reported inhibition of the following compound is 40% or greater: "Cc1cc(C(=O)COC(=O)c2ccc[nH]c2=O)c(C)n1-c1ccc(F)cc1"
yes

Identify whether the reported inhibition of the following compound is 40% or greater: "COc1ccc(/C=C2\SC(N3CCc4ccccc4C3)=NC2=O)cc1"
yes

Identify whether the reported inhibition of the following compound is 40% or greater: CCCNC(=O)c1nnsc1S(=O)c1ccc(Cl)cc1 (stereo not drawn)
yes
